B1: NLV2 TCR alpha chain (CDR3α only) (parent)
chain: AGPMKTSYDKVI
partner: NLVGMVATV

- Variants of: B1
- assayProcedure: T-Switch: Jurkat TCRβ−/− cells expressing a CDR3 saturation-mutagenesis library, stained with two peptide-HLA-A*02:01 tetramers (original and novel peptide) plus anti-CD3, FACS-sorted into four gates, gDNA sequenced
- experimentalContext: with HLA-A*02:01 with peptide … (NLV 2-2, the original bait), tetramers 1 µg/mL, 30 min on ice, DP and SW gates expanded about 10 days between rounds ('two to three rounds of selection' in the Methods), gate SP: higher = more of the variant in the gate that binds the original peptide and not the novel one = retained original binding. Fold enrichment of the CDR3 variant in one FACS gate of a two-tetra, unresolved parent, parent is a CDR3 fragment, scale: fold enrichment, numbering: sequential-on-construct, sequence …
assayReadout: enrichment

Solved entries (count: 5):
- change: "[…] (CDR3 as printed); Y8M derived by comparing it with the table's wild-type CDR3 AGPMKTSYDKVI"
  reportedMeasurement: 0
- change: "[…] (CDR3 as printed); P3W derived by comparing it with the table's wild-type CDR3 AGPMKTSYDKVI"
  reportedMeasurement: 0
- change: "[…] (CDR3 as printed); D9A derived by comparing it with the table's wild-type CDR3 AGPMKTSYDKVI"
  reportedMeasurement: 0
- change: "[…] (CDR3 as printed); S7M derived by comparing it with the table's wild-type CDR3 AGPMKTSYDKVI"
  reportedMeasurement: 0
- change: "[…] (CDR3 as printed); M4A derived by comparing it with the table's wild-type CDR3 AGPMKTSYDKVI"
  reportedMeasurement: 8.93

API: the following record is the query input.
GET /values?readout=enrichment&item= […] (CDR3 as printed); K5N derived by comparing it with the table's wild-type CDR3 AGPMKTSYDKVI
0
